Values were extracted from patent US10336697B2.

- measured_target: Bet BRD4 full length bromo-domain protein (Homo sapiens, UniProt O60885)
- protocol_summary: Bet bromodomain TR-FRET assay (displacement of acetyl histone peptide)
- Type: binding
- run_conditions: Bet BRD4 full length bromodomain protein, 300 nM acetyl histone peptide substrate, read-out: IC50
readout_label: IC50

Example entries and their recorded answers appear below.
molecule	IC50
O=C(Nc1cccnc1)c1cc(NS(=O)(=O)c2ccc(F)cc2F)cc2c1NC(=O)C21CCC1	600 to 1000 nM
COc1ccccc1S(=O)(=O)Nc1cc(Oc2ccc(N)nc2)c2c(c1)C1(CCC1)C(=O)N2	< 600 nM
COc1ccccc1S(=O)(=O)Nc1cc(OC2CCCN(C)CC2)c2c(c1)C1(CCC1)C(=O)N2 (stereo not drawn)	< 600 nM
O=C1Nc2c(NCc3cnc[nH]3)cc(NS(=O)(=O)c3ccc(F)cc3F)cc2C12CCC2	< 600 nM

The reported IC50 of the molecule O=C1Nc2c(NC3CN4CCC3CC4)cc(NS(=O)(=O)c3ccc(F)cc3F)cc2C12CCC2 (stereo not drawn) was < 600 nM

Form: molecule = CN1CCC(NC(=O)c2cc(NS(=O)(=O)c3cc(F)ccc3F)cc3c2NC(=O)C32CCC2)CC1 ; IC50 = < 600 nM

The molecule identified as CN1CCC(Oc2cc(NS(=O)(=O)c3ccccc3F)cc3c2NC(=O)C32CCC2)CC1 registered its IC50 at < 600 nM

Per the records, this molecule ( COc1ccccc1S(=O)(=O)Nc1cc(OCC2COCCN2)c2c(c1)C1(CCC1)C(=O)N2 (stereo not drawn) ) has IC50 equal to < 600 nM

According to the records, this molecule CN1CCC(Oc2cc(NS(=O)(=O)c3ccc(Cl)cc3F)cc3c2NC(=O)C32CCC2)C1 (stereo not drawn) displays IC50 of < 600 nM

* * *

- measured_target: Bet BRD4 full length bromo-domain protein (Homo sapiens, UniProt O60885)
- protocol_summary: Bet bromodomain TR-FRET assay (displacement of acetyl histone peptide)
- Type: binding
- run_conditions: Bet BRD4 full length bromodomain protein, 300 nM acetyl histone peptide substrate, read-out: IC50
readout_label: IC50

compound	measured_target	IC50
CN1CCC(CCNc2cc(NS(=O)(=O)c3ccc(F)cc3F)cc3c2NC(=O)C32CCC2)CC1	Bet BRD4 full length bromo-domain protein (Homo sapiens, UniProt O60885)	< 600 nM
COc1ccccc1S(=O)(=O)Nc1cc(C(C)c2ccccc2)c2c(c1)C1(CCC1)C(=O)N2 (stereo not shown) [Compound 113]	Bet BRD4 full length bromo-domain protein (Homo sapiens, UniProt O60885)	< 600 nM
O=C1Nc2c(-c3ccnc(O)c3)cc(NS(=O)(=O)c3ccc(F)cc3F)cc2C12CCC2	Bet BRD4 full length bromo-domain protein (Homo sapiens, UniProt O60885)	> 1000 nM
O=C1Nc2c(CO)cc(NS(=O)(=O)c3ccc(F)cc3F)cc2C12CCC2	Bet BRD4 full length bromo-domain protein (Homo sapiens, UniProt O60885)	< 600 nM
O=C1Nc2c(OCCc3ccccn3)cc(NS(=O)(=O)c3ccc(Cl)cc3F)cc2C12CCC2	Bet BRD4 full length bromo-domain protein (Homo sapiens, UniProt O60885)	< 600 nM

In plain terms, COc1ccccc1S(=O)(=O)Nc1cc(C(C)c2ccccn2)c2c(c1)C1(CCC1)C(=O)N2 (stereo not shown) has a documented IC50 of < 600 nM

Value of measured IC50 for the entry COc1ccccc1S(=O)(=O)Nc1cc(OC(C)CN(C)C)c2c(c1)C1(CCC1)C(=O)N2 (stereo not shown) : < 600 nM

Per the records, this compound ( O=C1Nc2c(-c3ccc(O)nc3)cc(NS(=O)(=O)c3ccc(F)cc3F)cc2C12CCC2 ) has IC50 equal to 600 to 1000 nM

Just so you know, measured IC50 for C=C(c1ccccc1)c1cc(NS(=O)(=O)c2ccccc2OC)cc2c1NC(=O)C21CCC1 came out at < 600 nM

Looking up COc1ccccc1S(=O)(=O)Nc1cc(OCc2ccccn2)c2c(c1)C1(CCC1)C(=O)N2 , I found its IC50 recorded as < 600 nM

Kindly note the recorded IC50 for O=C1Nc2c(NCc3ccncc3)cc(NS(=O)(=O)c3ccc(F)cc3F)cc2C12CCC2 , which is < 600 nM

Kindly note the recorded IC50 for CC(Oc1cc(NS(=O)(=O)c2ccc(Cl)cc2F)cc2c1NC(=O)C21CCC1)c1ccccn1 (single isomer, unassigned) [Compound 156] , which is < 600 nM

Reported IC50 ( O=C(Nc1cc(Br)c2c(c1)C1(CCC1)C(=O)N2)c1cccnc1N1CCOCC1 ) = > 1000 nM

Lab note: CN1CCC(CNc2cc(NS(=O)(=O)c3ccc(F)cc3F)cc3c2NC(=O)C32CCC2)CC1 gave IC50 of < 600 nM

Noted for CN1CCC(NC(=O)c2cc(NS(=O)(=O)c3ccc(F)cc3F)cc3c2NC(=O)C32CCC2)C1 (stereo not shown) : its IC50 reads < 600 nM

The reported IC50 of the compound COc1ccccc1S(=O)(=O)Nc1cc(C(=O)NC2CCN(C)CC2)c2c(c1)C1(CCC1)C(=O)N2 was < 600 nM

* * *

- measured_target: Bet BRD4 full length bromo-domain protein (Homo sapiens)
- protocol_summary: Bet bromodomain TR-FRET assay (displacement of acetyl histone peptide)
- Assay type: binding
- run_conditions: Bet BRD4 full length bromodomain protein, 300 nM acetyl histone peptide substrate, read-out: IC50
readout_label: IC50

Consider the following illustrative entries.
compound	measured_target	readout_label	measured
CCNCCOc1cc(NS(=O)(=O)c2ccccc2OC)cc2c1NC(=O)C21CCC1	Bet BRD4 full length bromo-domain protein (Homo sapiens)	IC50	< 600 nM
COc1ccccc1S(=O)(=O)Nc1cc(OC2CCN(C3CC3)CC2)c2c(c1)C1(CCC1)C(=O)N2	Bet BRD4 full length bromo-domain protein (Homo sapiens)	IC50	< 600 nM
O=C1Nc2c(OC3CCOCC3)cc(NS(=O)(=O)c3ccc(Cl)cc3F)cc2C12CCC2	Bet BRD4 full length bromo-domain protein (Homo sapiens)	IC50	< 600 nM

// assay Bet BRD4 full length bromo-domain protein (Homo sapiens), entry COc1cc(-c2cc(NS(=O)(=O)c3ccc(F)cc3F)cc3c2NC(=O)C32CCC2)ccn1 , IC50 value = 600 to 1000 nM

Short answer on Bet BRD4 full length bromo-domain protein (Homo sapiens) for COC(=O)c1cc(NS(=O)(=O)c2ccc(F)cc2F)cc2c1NC(=O)C21CCC1 , IC50: < 600 nM

Given the compound O=C1Nc2c(OCc3ccc(F)cn3)cc(NS(=O)(=O)c3ccc(Cl)cc3F)cc2C12CCC2 and test system Bet BRD4 full length bromo-domain protein (Homo sapiens), the measured IC50 is < 600 nM

* * *

Item-by-item account of IC50
- measured_target: Bet BRD4 full length bromo-domain protein (Homo sapiens, UniProt O60885)
- protocol_summary: Bet bromodomain TR-FRET assay (displacement of acetyl histone peptide)
- Format: binding
- run_conditions: Bet BRD4 full length bromodomain protein, 300 nM acetyl histone peptide substrate, read-out: IC50

Example compounds with recorded IC50:
compound	measured_target	IC50
CN1CCCC(Oc2cc(NS(=O)(=O)c3ccc(Cl)cc3F)cc3c2NC(=O)C32CCC2)C1 (stereo not shown) [Compound 131]	Bet BRD4 full length bromo-domain protein (Homo sapiens, UniProt O60885)	0.6 to 1 µM
O=C(c1cc(NS(=O)(=O)c2ccc(F)cc2N2CCOCC2)cc2c1NC(=O)C21CCC1)N1CCOCC1 [Compound 61]	Bet BRD4 full length bromo-domain protein (Homo sapiens, UniProt O60885)	> 1 µM
O=C1Nc2c(OC3CCC(F)(F)CC3)cc(NS(=O)(=O)c3ccc(Cl)cc3F)cc2C12CCC2 [Compound 175]	Bet BRD4 full length bromo-domain protein (Homo sapiens, UniProt O60885)	0.6 to 1 µM
CC(C)Oc1ccccc1S(=O)(=O)Nc1cc(OC2CCN(C)CC2)c2c(c1)C1(CCC1)C(=O)N2 [Compound-184]	Bet BRD4 full length bromo-domain protein (Homo sapiens, UniProt O60885)	< 0.6 µM
O=C1Nc2c(NC3CCNCC3)cc(NS(=O)(=O)c3ccc(F)cc3F)cc2C12CCC2 [Compound 79a]	Bet BRD4 full length bromo-domain protein (Homo sapiens, UniProt O60885)	< 0.6 µM
COc1ccc(S(=O)(=O)Nc2cc(C3CCN(C)CC3)c3c(c2)C2(CCC2)C(=O)N3)c(F)c1 [Compound 98]	Bet BRD4 full length bromo-domain protein (Homo sapiens, UniProt O60885)	< 0.6 µM

Query CN1CCC(NC(=O)c2cc(NS(=O)(=O)c3ccc(Br)cc3F)cc3c2NC(=O)C32CCC2)CC1 [Compound 74] yields IC50 of < 0.6 µM

Reported IC50 ( O=C(Nc1ccncc1)c1cc(NS(=O)(=O)c2ccc(F)cc2F)cc2c1NC(=O)C21CCC1 [Compound 57] ) = < 0.6 µM

Entry O=C1Nc2c(OCC3CNCCO3)cc(NS(=O)(=O)c3ccc(Cl)cc3F)cc2C12CCC2 (stereo not shown) [compound 202] , IC50 reported as < 0.6 µM

What the record says about CC1CC(Oc2cc(NS(=O)(=O)c3ccc(Cl)cc3F)cc3c2NC(=O)C32CCC2)CC(C)N1C (stereo not shown) [compound 195] : IC50 is < 0.6 µM

Per the records, this compound ( O=C1CCC(Nc2cc(NS(=O)(=O)c3ccc(F)cc3F)cc3c2NC(=O)C32CCC2)CN1 (stereo not shown) [Compound 33] ) has IC50 equal to < 0.6 µM

Lab book: IC50 of COc1ccccc1S(=O)(=O)Nc1cc(OCCN(C)C)c2c(c1)C1(CCC1)C(=O)N2 [Compound 162] noted as < 0.6 µM

Just so you know, measured IC50 for CCC(=O)N1CCC(Nc2cc(NS(=O)(=O)c3ccc(F)cc3F)cc3c2NC(=O)C32CCC2)CC1 [Compound 21] came out at < 0.6 µM

Reported IC50 ( CC1(C)CNCCC1Nc1cc(NS(=O)(=O)c2ccc(F)cc2F)cc2c1NC(=O)C21CCC1 (stereo not shown) [Compound 103] ) = < 0.6 µM

Briefly, IC50 measured for O=C(Nc1cc(NS(=O)(=O)c2ccc(F)cc2F)cc2c1NC(=O)C21CCC1)c1cccnc1 [Compound 44] : > 1 µM

Consider O=C1Nc2c(-c3cccc(O)c3)cc(NS(=O)(=O)c3ccc(F)cc3F)cc2C12CCC2 [Compound 1] . Its measured IC50 is < 0.6 µM
